- System: MDA-MB-231 cells
- Experiment: In vitro invasion assay, Matrigel-coated Boyden chambers, MDA-MB-231
- Type: cell-based, human
- Conditions used: 24 h preincubation, 3 experiments, read-out: Mean IC50 inhibition of invasion through Matrigel matrix
Value type: IC50 (µM)
Numbers only, in µM.

query: # return recorded IC50 for input Cc1ccnc2c1ccc1c(C)ccnc12.Cc1ccnc2c1ccc1c(C)ccnc12.O=S(=O)([O-])[O-].[O]=[V+2] [[VO(SO4)(Me2-Phen)2]]
result: 0.6

====

- Tested on: U87 glioblastoma cells
- Experiment: In vitro adhesion assay to ECM proteins, U87
- Format: cell-based, human
- Conditions used: U87, laminin-coated plates, 16 h pretreatment, mean ± SE of 3 experiments; read-out: IC50 inhibition of adhesion to laminin
Value type: IC50 (nM)
Give bare numbers, in nM.

query: Report value only: IC50, U87 glioblastoma cells, Cc1ccnc2c1ccc1c(C)ccnc12.Cc1ccnc2c1ccc1c(C)ccnc12.O=S(=O)([O-])[O-].[O]=[V+2] [[VO(SO4)(Me2-Phen)2]]
result: 1400

====

- Tested on: U87 cells
- Experiment: In vitro invasion assay, Matrigel-coated Boyden chambers, U87
- Type: cell-based, human
- Conditions used: 24 h preincubation, 3 experiments, read-out: Mean IC50 inhibition of invasion through Matrigel matrix
Value type: IC50 (nM)
Answers are plain numbers, in nM.

query: Report value only: IC50, U87 cells, Cc1ccnc2c1ccc1c(C)ccnc12.Cc1ccnc2c1ccc1c(C)ccnc12.O=S(=O)([O-])[O-].[O]=[V+2] [[VO(SO4)(Me2-Phen)2]]
result: 780

Just for reference, patent US6878388B1 is where these values come from.
